# Test system: 485176-168-R4-J1-PDC complex spheroid growth;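 note: spheroids exposed to compounds for seven days before readout; luminescence viability expressed relative to DMSO vehicle wells set as 100%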
# Experiment notes: Anticancer human tumor 485176-168-R4-J1-PDC patient-derived pancreatic adenocarcinoma cell line growth inhibition [RAS]
# Test conditions: second compound 0.1 µM; first compound 1 µM; hits give low values
Entries whose viability, T/C is below 80% take 1; entries at or above 80% take -1.

Molecule	Assigned category
CCC(CC)c1cc(NC2CCC(N)C2)n2nccc2n1 (stereo unspecified) + C#Cc1c(F)ccc2cc(O)cc(-c3ncc4c(N5CC6CCC(C5)N6)nc(OCC56CCCN5CC(F)C6)nc4c3F)c12	1
Cc1nc(N2CCC3(CC2)COC(C)C3N)c(CO)nc1Sc1ccnc(N)c1Cl (stereo unspecified) + C#Cc1c(F)ccc2cc(O)cc(-c3ncc4c(N5CC6CCC(C5)N6)nc(OCC56CCCN5CC(F)C6)nc4c3F)c12	-1
C=CC(=O)Nc1cc(Nc2nccc(-c3cn(C)c4ccccc34)n2)c(OC)cc1N(C)CCN(C)C + C=CC(=O)N1CCN(c2nc(OCC3CCCN3C)nc3c(F)c(-c4nc(N)cc(C)c4C(F)(F)F)c(Cl)cc23)C(C)C1	1
CC1(O)CCCC1n1c(=O)c(C(F)F)cc2cnc(NC3CCN(S(C)(=O)=O)CC3)nc21 (stereo unspecified) + C=CC(=O)N1CCN(c2nc(OCC3CCCN3C)nc3c(F)c(-c4nc(N)cc(C)c4C(F)(F)F)c(Cl)cc23)C(C)C1	1
C[C@@H](NC(=O)c1ncnc(N)c1Cl)c1ncc(C(=O)Nc2cc(C(F)(F)F)c(Cl)cn2)s1 + C=CC(=O)N1CCN(c2nc(OCC3CCCN3C)nc3c(F)c(-c4nc(N)cc(C)c4C(F)(F)F)c(Cl)cc23)C(C)C1	-1
CC(C)NCC(C(=O)N1CCN(c2ncnc3c2C(C)CC3O)CC1)c1ccc(Cl)cc1 (stereo unspecified) + C=CC(=O)N1CCN(c2nc(OCC3CCCN3C)nc3c(F)c(-c4nc(N)cc(C)c4C(F)(F)F)c(Cl)cc23)C(C)C1	1

// data source = PubChem BioAssay AID2060906
